inhibition overview
Target: Phosphodiesterase 3 (Homo sapiens, UniProt Q14432+Q13370)
Assay: Inhibition of PDE3 at 500 uM by Biomol Green quantizyme assay system
Format: protein assay
recorded.endpoint: inhibition (%)

{"columns": ["smiles", "uom", "experimental.result"],
 "data": [
  ["N#Cc1cc(Cc2ccccc2)c(=O)[nH]c1-c1ccccc1", "%", 22.5],
  ["COC(=O)c1cc(Cc2ccccc2Cl)c(=O)[nH]c1C", "%", 85.8],
  ["CCOC(=O)c1cc(Cc2cccc(Cl)c2)c(=O)[nH]c1-c1ccccc1", "%", 80.9],
  ["N#Cc1cc(Cc2ccc(Br)cc2)c(=O)[nH]c1-c1ccccc1", "%", 4.3],
  ["Cc1[nH]c(=O)c(Cc2ccc(Br)cc2)cc1C#N", "%", 17.3],
  ["Cc1ccc(Cc2cc(C#N)c(C)[nH]c2=O)cc1", "%", 85.9],
  ["CCCc1cc(C(=O)OCC)c(C)[nH]c1=O", "%", 78.2],
  ["CCOC(=O)c1cc(Cc2ccc(Cl)cc2)c(=O)[nH]c1-c1ccccc1", "%", 1.1],
  ["Cc1[nH]c(=O)c(Cc2ccccc2)cc1C#N", "%", 84.6],
  ["Cc1[nH]c(=O)c(Cc2ccc(Cl)cc2)cc1C#N", "%", 41.2],
  ["CCOC(=O)c1cc(Cc2ccc(Br)cc2)c(=O)[nH]c1C", "%", 79.1],
  ["CCOC(=O)c1cc(Cc2ccc(Cl)cc2Cl)c(=O)[nH]c1C", "%", 78.3]
]}

* * *

Biological target: Phosphodiesterase 3 (Homo sapiens, UniProt Q14432+Q13370)
Assay: Inhibition of PDE3 at 500 uM by Biomol Green quantizyme assay system
Format: protein assay
Rule: inhibition under 80% gives no (0), otherwise yes (1).

{"columns": ["smiles", "assigned.category"],
 "data": [
  ["CCOC(=O)c1cc(Cc2ccc(C)cc2)c(=O)[nH]c1-c1ccccc1", "no (0)"],
  ["CCOC(=O)c1cc(Cc2ccccc2Cl)c(=O)[nH]c1C", "no (0)"],
  ["CCOC(=O)c1cc(Cc2ccccc2)c(=O)[nH]c1-c1ccccc1", "yes (1)"],
  ["Cc1[nH]c(=O)c(C#N)cc1-c1ccncc1", "yes (1)"],
  ["COC(=O)c1cc(Cc2ccccc2)c(=O)[nH]c1C", "no (0)"]
]}

* * *

IC50 overview
Biological target: Phosphodiesterase 3 (Homo sapiens, UniProt Q14432+Q13370)
Assay: Inhibition of PDE3 by Biomol Green quantizyme assay system
Assay type: protein assay

{"columns": ["smiles", "IC50"],
 "data": [
  ["Cc1[nH]c(=O)c(Cc2ccccc2)cc1C#N", "128.3 µM"],
  ["CCOC(=O)c1cc(Cc2cccc(Cl)c2)c(=O)[nH]c1C", "7.49 µM"],
  ["Cc1[nH]c(=O)c(Cc2ccccc2Cl)cc1C#N", "423.2 µM"],
  ["CCOC(=O)c1cc(Cc2ccc(Br)cc2)c(=O)[nH]c1-c1ccccc1", "8.47 µM"],
  ["Cc1[nH]c(=O)c(Cc2ccc(Cl)cc2Cl)cc1C#N", "280.7 µM"],
  ["COC(=O)c1cc(Cc2ccccc2Cl)c(=O)[nH]c1C", "2.66 µM"],
  ["CCOC(=O)c1cc(Cc2ccccc2)c(=O)[nH]c1-c1ccccc1", "7.3 µM"],
  ["Cc1ccc(Cc2cc(C#N)c(C)[nH]c2=O)cc1", "1.68 µM"],
  ["CCCc1cc(C(=O)OCC)c(C)[nH]c1=O", "125.1 µM"],
  ["CCOC(=O)c1cc(Cc2ccc(C)cc2)c(=O)[nH]c1C", "172.5 µM"],
  ["CCOC(=O)c1cc(Cc2cccc(Cl)c2)c(=O)[nH]c1-c1ccccc1", "312.4 µM"],
  ["CCOC(=O)c1cc(Cc2ccc(Cl)cc2Cl)c(=O)[nH]c1C", "172.13 µM"],
  ["COC(=O)c1cc(Cc2ccccc2)c(=O)[nH]c1C", "163.5 µM"],
  ["CCOC(=O)c1cc(Cc2ccc(Br)cc2)c(=O)[nH]c1C", "38.5 µM"]
]}

Where these numbers come from: ChEMBL document CHEMBL2069260
